Target or system: hP2Y6 receptor (Homo sapiens, UniProt Q15077)
Sequence (Q15077 whole entry): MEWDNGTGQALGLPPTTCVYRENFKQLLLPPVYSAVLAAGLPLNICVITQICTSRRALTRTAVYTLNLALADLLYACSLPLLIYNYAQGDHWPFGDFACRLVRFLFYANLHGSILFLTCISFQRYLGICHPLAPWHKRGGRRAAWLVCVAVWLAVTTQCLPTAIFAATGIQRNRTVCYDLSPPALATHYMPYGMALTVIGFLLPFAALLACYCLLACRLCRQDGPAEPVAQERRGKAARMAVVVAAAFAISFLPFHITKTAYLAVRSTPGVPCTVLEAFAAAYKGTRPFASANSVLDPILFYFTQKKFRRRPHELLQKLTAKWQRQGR
Assay method text: P2Y6 receptor-stimulated PLC activity
Format: cell-based
Observed property: EC50 (µM)

{"Smiles representation": "CC(C)(C)OP(=O)(O)OP(=O)(O)OC[C@H]1O[C@@H](n2ccc(=O)[nH]c2=O)[C@H](O)[C@@H]1O", "Target or system": "hP2Y6 receptor (Homo sapiens, UniProt Q15077)", "Observed property": "EC50", "Quantitative readout": 10.8}

* * *

Target or system: hP2Y14 receptor (Homo sapiens)
Sequence (Q15391 whole entry): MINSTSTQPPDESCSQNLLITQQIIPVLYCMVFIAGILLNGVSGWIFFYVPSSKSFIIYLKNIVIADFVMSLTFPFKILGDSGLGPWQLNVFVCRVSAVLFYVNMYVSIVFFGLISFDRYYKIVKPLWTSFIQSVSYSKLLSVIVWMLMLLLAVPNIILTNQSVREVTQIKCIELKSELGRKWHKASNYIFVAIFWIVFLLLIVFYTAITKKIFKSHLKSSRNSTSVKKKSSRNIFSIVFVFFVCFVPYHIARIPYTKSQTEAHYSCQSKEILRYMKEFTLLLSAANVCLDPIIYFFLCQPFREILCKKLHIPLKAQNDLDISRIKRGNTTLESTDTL
Assay method text: P2Y14 receptor-inhibited accumulation of cAMP
Assay type: cell-based
Run conditions: ratio of EC50 at hP2Y6 to EC50 at hP2Y14
This listing pairs compounds with measured fold selectivity for P2Y14 in comparison to P2Y6.
Observed property: fold selectivity for P2Y14 in comparison to P2Y6

{"Smiles representation": "O=c1ccn([C@@H]2O[C@H](COP(=O)(O)OP(=O)(O)O)[C@@H](O)[C@H]2O)c(=S)[nH]1", "Result": "233 fold"}
{"Smiles representation": "CCCOP(=O)(O)OP(=O)(O)OC[C@H]1O[C@@H](n2ccc(=O)[nH]c2=S)[C@H](O)[C@@H]1O.N", "Result": "> 200 fold"}
{"Smiles representation": "COP(=O)(O)OP(=O)(O)OC[C@H]1O[C@@H](n2ccc(=O)[nH]c2=S)[C@H](O)[C@@H]1O.N", "Result": "> 180 fold"}
{"Smiles representation": "C#CCCOP(=O)(O)OP(=O)(O)OC[C@H]1O[C@@H](n2ccc(=O)[nH]c2=S)[C@H](O)[C@@H]1O.CCN(CC)CC", "Result": "> 900 fold"}

* * *

Target or system: hP2Y6 receptor (Homo sapiens, UniProt Q15077)
Assay method text: P2Y6 receptor-stimulated PLC activity
Format: cell-based
Run conditions: read-out: EC50, hP2Y6; stimulation of PLC, hP2Y6 stably expressed in 1321N1 cells; mean ± standard error, N = 3; >10,000 = <50% effect at 10 μM; NE = no effect at 10 μM
pEC50: −log10 of the molar value.

{"Smiles representation": "O=c1ccn([C@H]2[C@H](O)[C@H](O)[C@@]3(COP(=O)(O)OP(=O)(O)O)C[C@H]23)c(=O)[nH]1", "pEC50": "< 5.00"}
